The measured values listed here are drawn from ChEMBL document CHEMBL4270481.

# SYSTEM_NAME: Cyclin-dependent kinase 2/cyclin E1 (Homo sapiens)
# TEST_PROTOCOL: Inhibition of human CDK2/cyclin E expressed in Sf9 insect cells using histone H1 as substrate in presence of [gamma-33P]ATP
pIC50: −log10 of the molar value.
Known pIC50 of a selection of molecules

GET /value?item= CCc1cccc(-c2nn3c(c2-c2ccnc(Nc4ccc(S(N)(=O)=O)cc4)c2)C(C)C(C)(C)C3)n1 (stereo not given) &field=pIC50 returns 4.43

Memo: COCC1c2c(-c3ccncc3)c(-c3cccc(C)n3)nn2CC1(C)C (stereo not given) , reported pIC50: < 4.00

Measured pIC50 of Cc1cccc(-c2nn3c(c2-c2ccncc2)C(C)C(C)(C)C3)n1 (stereo not given) : < 4.00

Reported pIC50 for "Cc1cccc(-c2nn3c(c2-c2ccc(O)cc2)[C@@H](C)C(C)(C)C3)n1" was < 4.60

The recorded pIC50 for CCc1cccc(-c2nn3c(c2-c2ccnc(Cl)c2)C(C)C(C)(C)C3)n1 (stereo not given) is < 4.00
